system: CCRF-CEM; experiment: NCI tumour cell line growth inhibition, 48 h
The source made the active and inactive calls. No stated cut-off is given here; in the data, active = GI50 up to about 1.1 µM and inactive = higher.
Respond using exactly one of the listed classes: 1 for active, 0 for inactive

Hey, what did the test say about O/N=C1\CCCCC1C(NO)c1ccccc1 (centres undefined) ?
0

// query: N#Cc1ccccc1NC(=O)C(=O)c1c(O)c2ccccc2oc1=O
0

// query: CCOC(=O)NC1CC2CCC1(OC)C=C2C (centres undefined)
0

// query: CCCCCCCCCCCCCCCCCCNc1ccn(C2OC(COP(=O)(O)OCCCCCCCCCCCCCCCC)C(O)C2O)c(=O)n1 (centres undefined)
0

// query: CS(=O)(=O)N1CC(CCl)c2ccc(NCCN)cc21 (centres undefined)
0

// query: COc1cc2nncc(SCc3ccc(Cl)c(Cl)c3)c2cc1OC
0

// query: COC(=O)CCCC(=O)C1=NN(c2ccc(Cl)cc2)Cc2ccccc2N1
0

// query: COC(=O)C1=C(O)C(C(=O)OC)C2CC(=O)CC1C2(C)C (centres undefined)
0

// query: CSC1=NS(=O)(=O)c2cc(C(=O)NN(C)C(=O)c3cc4c(cc3Cl)SC(SC)=NS4(=O)=O)c(Cl)cc2S1
0

// query: N#Cc1nc(C2=C(Cl)c3ccccc3OC2)[nH]c1C#N
0

// query: CN(C)c1nc(N(C)C)nc(N(C)CN(C)c2ccc(Cl)cc2)n1
0

// query: Cc1ccccc1C1OC(=O)c2ccc3ccccc3c21 (centres undefined)
0

// query: O=C1CCSSCCC(=O)NCCN1
0

// query: NCCCCC(NC(=O)C(N)Cc1ccc(O)cn1)C(=O)O (centres undefined)
0

// query: CN(C)CCCNC(=O)CCNC(=O)c1cc(NC(=O)c2cc(NC(=O)c3cc(NC(=O)c4nccn4C)cn3C)cn2C)cn1C
0

// query: CCc1cc2c(O)c(c1)Cc1cc(CC)cc(c1O)Cc1cc(CC)cc(c1O)Cc1cc(CC)cc(c1O)Cc1cc(CC)cc(c1O)Cc1cc(CC)cc(c1O)Cc1cc(CC)cc(c1O)C2
0

// query: CS/C(c1ccccc1)=[N+](/C)[O-]
0

// query: CNC(=O)OC(COC)CN1CCN(c2ccccc2C)CC1 (centres undefined)
0

// query: O=C(NC(N1CCN(c2cc3c(cc2F)c(=O)c(C(=O)O)cn3C2CC2)CC1)(C(F)(F)F)C(F)(F)F)c1ccccc1
0

// query: CCc1cc2c(c3c1CCCC3)CC1(Cc3ccc(C(=O)OC)cc3C1)C2 (centres undefined)
0

// query: CC(=O)NC1=C(OS(=O)(=O)c2ccc(C)cc2)CN(C)C1=O
0

// query: Oc1nc2cc(Cl)ccc2nc1/C(=N\Nc1ccccc1)C(O)c1ccc2c(c1)OCO2 (centres undefined)
0

// query: Cc1ccc(C(=O)Nc2ccc(S(=O)(=O)O)c3cc(S(=O)(=O)O)cc(S(=O)(=O)O)c23)cc1NC(=O)Nc1cc(C(=O)Nc2ccc(S(=O)(=O)O)c3cc(S(=O)(=O)O)cc(S(=O)(=O)O)c23)ccc1C
0

// query: Cc1cc(=O)[nH]c2c1C(=O)c1c(C)cc(=O)n(C)c1C2=O
1

// query: CCOC(=O)/C=C(/C(=O)OCC)n1cc(C)c(=O)n(Cc2cn(COCCOC(C)=O)nn2)c1=O
1

// query: CN(C)CCn1c(=O)c2ccc3c4c(nn3CCN(C)C)c3cc(N)ccc3n(c1=O)c24
1

// query: CC(Oc1ccc(OCC2CCCCC2)cc1)C(N)=O (centres undefined)
0

// query: CN(C)CC1CCCCCC(Br)C1=O (centres undefined)
1

// query: Cc1nc(=O)n2c(C)n[nH]c2c1C(=O)O
0

---

system: MOLT-4; assay: NCI tumour cell line growth inhibition, 48 h
The source made the active and inactive calls. Cut-off read from the data, not from the text of the source: active = GI50 up to about 1.1 µM and inactive = higher.
Respond using exactly one of the listed classes: yes (1) (active), no (0) (inactive)

Hey, what did the test say about CCCCCCCCC/C=C1/CC(CO)(COC(=O)CC(C(C)C)C(C)C)OC1=O (centres undefined) ?
no (0)

// query: Oc1nc2c(c(-c3cccc(Cl)c3)n1)COC/C2=C\c1cccc(Cl)c1
no (0)

// query: N#C/C(N)=C(\C#N)NC(=O)C(=O)N/C(C#N)=C(\N)C#N
no (0)

// query: CC1C=CC(O)[C@]2(CO)CC3(CCC12)OCCO3 (some centres undefined)
no (0)

// query: CC(=O)O[C@H]1CC[C@@]2(C)C(=CC[C@H]3[C@@H]4C/C(=C\c5ccncc5)[C@H](OC(C)=O)[C@@]4(C)CC[C@@H]32)C1
no (0)

// query: Cc1cc(=O)[nH]c2c1C(=O)c1c(C)cc(=O)n(C)c1C2=O
yes (1)

// query: COc1ccc2c(c1)[n+]([O-])c(-c1c(Cl)cccc1Cl)c(N)[n+]2[O-]
no (0)

// query: c1ccc(C2OC3(CCC[C@H]4C[C@H]43)O[C@H]2c2ccccc2)cc1 (some centres undefined)
no (0)

// query: CN(C)CCn1c(=O)c2ccc3c4c(nn3CCN(C)C)c3cc(N)ccc3n(c1=O)c24
yes (1)

---

test system: SF-539; test: NCI tumour cell line growth inhibition, 48 h
Calls of active or inactive are those of the source. Cut-off read from the data, not from the text of the source: active = GI50 up to about 1.1 µM and inactive = higher.
I'd be grateful if you could share measured GI50 for these entries.

Form field: reported GI50 of CCNC(C)Cc1ccccc1 (stereo unspecified)
> 100 µM (inactive)

// query: C/C(CC(=O)Nc1ccc(NC(=O)/C(C)=N/NS(=O)(=O)c2ccc(C)cc2)cc1)=N\NS(=O)(=O)c1ccc(C)cc1
> 100 µM (inactive)

// query: CC(C)(C)OC(=O)Cn1ncn(NC(=O)Cc2ccccc2)c1=O
> 10 µM (inactive)

// query: Cc1nc(=O)n2c(C)n[nH]c2c1C(=O)O
> 100 µM (inactive)

// query: c1ccc(C2OC3(CCC[C@H]4C[C@H]43)O[C@H]2c2ccccc2)cc1 (stereo partly specified)
> 100 µM (inactive)

// query: Cc1ccc(Nc2cccc3c2C(=O)c2cccc(Nc4ccc(C)cc4S(=O)(=O)O)c2C3=O)c(S(=O)(=O)O)c1
> 100 µM (inactive)

// query: CN(C)CCCNC(=O)c1cn2c(ccc3sc4ccccc4c(=O)c32)n1
16.7 µM (inactive)

// query: Oc1ccc(-c2nc3ccc(Br)cc3s2)cc1
14.8 µM (inactive)

// query: COC(=O)CCC(=O)NC1C2CC3CC(C2)CC1C3 (stereo unspecified)
> 100 µM (inactive)

// query: CCOC(=O)N(C)C(=C(F)F)C(F)(F)F
24.5 µM (inactive)

// query: O=C1CCSSCCC(=O)NCCN1
> 100 µM (inactive)

---

tested on: SNB-75; test: NCI tumour cell line growth inhibition, 48 h
Active and inactive are the calls of the source. Rule as the data show it: active = GI50 up to about 1.1 µM and inactive = higher.
I'd be grateful if you could share measured GI50 for these entries.

Provide value of GI50 for this record tested with SNB-75: C[C@@H]1CC[C@@]2(OC1)O[C@H]1C[C@H]3[C@@H]4CC[C@H]5C[C@@H](OC6OC(CO)C(OC7OC(CO)C(O)C(OC8OCC(O)C(O)C8O)C7OC7OC(CO)C(O)C(O)C7O)C(O)C6O)[C@H](O)C[C@]5(C)[C@H]4CC[C@]3(C)[C@H]1[C@@H]2C (some centres not stated)
13.6 µM (inactive)

// query: O=C(CCC(=O)C1CCC/C1=N/O)Nc1ccc(Cl)cc1 (configuration not stated)
74.5 µM (inactive)

// query: COC1CC(OC2C(C)OC(OC3C(C)OC(OC4C(O)CC(O[C@H]5CC[C@@]6(C)C(=CC[C@]7(O)[C@@H]6C[C@@H](OC(=O)/C=C/c6ccccc6)[C@@]6(C)[C@]7(O)CC[C@@]6(O)C(C)=O)C5)OC4C)CC3OC)CC2OC)OC(C)C1O (some centres not stated)
> 6.25 µM (inactive)

// query: N#Cc1c(O)c(/C=N/c2ccc(Cl)cc2)c(=O)n2c1[nH]c1ccccc12
> 100 µM (inactive)

// query: O=C(O)CC1(C(=O)O)CCCCC1
> 100 µM (inactive)

// query: N#C/C(C(=O)Nc1ccc(Cl)cc1)=C(/N)N1CCCC1
> 100 µM (inactive)

// query: CS/C(c1ccccc1)=[N+](/C)[O-]
> 64.6 µM (inactive)

---

I'd be grateful if you could share measured GI50 for these entries.
tested on: SK-OV-3; assay: NCI tumour cell line growth inhibition, 48 h
The source made the active and inactive calls. Cut-off read from the data, not from the text of the source: active = GI50 up to about 1.1 µM and inactive = higher. Non-standard residues stand in square brackets, D forms with d. Residues, ends and D or L forms follow the SMILES beside them.

Form field: reported GI50 of NC(CNc1ccc(O)cc1)C(=O)O (stereo not given)
> 100 µM (inactive)

// query: c1ccc(CSc2nc3ccccc3nc2-c2cccs2)cc1
> 100 µM (inactive)

// query: O=C(Nc1c(Cl)cc([N+](=O)[O-])cc1Cl)C(=O)C(C1OC(=O)c2ccccc21)[N+](=O)[O-] (stereo not given)
> 100 µM (inactive)

// query: CCOC(=O)Cn1c2ccccc2c(=O)c2cc(C)c(C)c(C#N)c21
55.5 µM (inactive)

// query: CCn1cc(C(=O)O)c(=O)c2cc(F)c(N3CCN(CN4C(=O)/C(=N\NC(=O)c5ccncc5)c5cc(Cl)ccc54)CC3)cc21
24.9 µM (inactive)

// query: O=C1CCSSCCC(=O)NCCN1
> 100 µM (inactive)

// query: Cc1ccc2c(c1)[n+]([O-])c(N)n[n+]2[O-]
> 100 µM (inactive)

// query: COc1ccc(-c2oc3cc(O)c(OC)c(O)c3c(=O)c2OC2OC(CO)C(O)C(O)C2O)cc1 (stereo not given)
> 100 µM (inactive)

// query: Cc1ccccc1C1OC(=O)c2ccc3ccccc3c21 (stereo not given)
2.52 µM (inactive)

// query: O=C1OC(=O)C2CCCC3CCCC1C32 (stereo not given)
> 100 µM (inactive)

// query: CC(=O)N/C=C/c1cc(O)ccc1O
> 58.5 µM (inactive)

// query: COc1cccc(/C=N/NC(=O)CN(C)C)c1O
> 100 µM (inactive)

// query: C/C(=N\NC(=S)Nc1ccc(C)cc1)c1nc2cccnc2[nH]1
4.3 µM (inactive)

// query: CCOC(=O)C1=CN(C(=O)c2ccccc2)CCC1Cc1ccccc1 (stereo not given)
31 µM (inactive)

// query: COC(=O)c1s/c(=N\C(=S)N(C)C)n(-c2ccc(Cl)cc2)c1C(=O)OC
> 10 µM (inactive)

// query: CN(C)CC1CCCCCC(Br)C1=O (stereo not given)
> 100 µM (inactive)

// query: CC1=CC(=O)/C(=C/NC(=S)c2ccncc2)C(=O)O1
> 100 µM (inactive)

// query: Cc1ccccc1NC(=O)c1cc(-c2ccc([N+](=O)[O-])cc2)nc(S)n1
> 100 µM (inactive)

// query: CC(C)C[C@H](NC(=O)[C@H](CC(C)C)NC(=O)[C@@H](Cc1c[nH]c2ccccc12)NC(=O)[C@H](Cc1ccccc1)NC(=O)[C@@H](Cc1c[nH]c2ccccc12)NC(=O)[C@H](CCC(N)=O)NC(=O)[C@H](CCC(N)=O)NC(=O)[C@H]1CCCN1C(=O)[C@@H](N)CCCCN)C(N)=O (H-K[dP]QQ[dW]F[dW]LL-NH2)
> 100 µM (inactive)

// query: CC1=CC(C)(C)N=C2SC(c3ccc(N)cc3)=NN12
> 100 µM (inactive)
